- TEST_DESCRIPTION: Dog single oral dose MTD study
- Assay type: in vivo
- COND: male, dog, plasma; 500 mg/kg PO (Dose 2; Day 4), 2 h, M, N = 2; read-out: Average Compound 1 Concentration in dog plasma
Structures can show the parent of a compound that is named as a salt.

# MOLECULE, concentration at 2 h [µg/mL]
rows = [
    ("CC1(C)SC(Nc2ccccc2O)=N[C@@H]1C(=O)O [Compound 1, mono-hydrochloride]", 193),
]

====

- TEST_DESCRIPTION: Rat 28-day GLP repeat dose PO study (toxicokinetics)
- Type: in vivo
- COND: female, rat, in vivo, po, 2000 mg/kg, Day 14, F, 2000 mg/kg PO
Structures can show the parent of a compound that is named as a salt.

# MOLECULE, AUC / µg·h/mL
records = [
    ("CC1(C)SC(Nc2ccccc2O)=N[C@@H]1C(=O)O [Compound 1, mono-hydrochloride]", 942),
]
